Target: acetylcholinesterase (AChE) (Electrophorus electricus)
Sequence (O42275 24-633): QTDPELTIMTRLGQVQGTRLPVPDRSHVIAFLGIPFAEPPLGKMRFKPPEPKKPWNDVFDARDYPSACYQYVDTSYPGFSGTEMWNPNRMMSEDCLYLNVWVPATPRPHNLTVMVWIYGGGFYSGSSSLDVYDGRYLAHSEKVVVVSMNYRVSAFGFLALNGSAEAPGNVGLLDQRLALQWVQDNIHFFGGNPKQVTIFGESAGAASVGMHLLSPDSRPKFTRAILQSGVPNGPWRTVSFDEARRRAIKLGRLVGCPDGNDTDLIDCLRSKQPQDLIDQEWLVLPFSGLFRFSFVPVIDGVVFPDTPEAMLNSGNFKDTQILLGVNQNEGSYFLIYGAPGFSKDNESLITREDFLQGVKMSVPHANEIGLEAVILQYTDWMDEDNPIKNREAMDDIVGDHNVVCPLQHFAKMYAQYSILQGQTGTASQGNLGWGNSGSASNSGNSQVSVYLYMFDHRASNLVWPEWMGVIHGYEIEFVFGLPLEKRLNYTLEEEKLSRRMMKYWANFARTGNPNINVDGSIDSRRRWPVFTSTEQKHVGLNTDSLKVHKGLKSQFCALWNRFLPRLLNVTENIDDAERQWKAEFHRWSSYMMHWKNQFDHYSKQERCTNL
Assay: biochemical
Type: biochemical
Settings: Comp. Conc. 1000 µg/mL; n = 3
Please respond with label 1 when measured Inhibition of Acetylcholinesterase (%AChE Activity) is strictly beneath 80%, and with label 0 in all other cases.

{"columns": ["structureSmiles", "categoryLabel"],
 "data": [
  ["N#Cc1cccnc1.N#Cc1cccnc1.O=C([O-])Cc1cccc(Cl)c1.O=C([O-])Cc1cccc(Cl)c1.O=C([O-])Cc1cccc(Cl)c1.O=C([O-])Cc1cccc(Cl)c1.[Cu+2].[Cu+2]", "label 0"],
  ["O=C([O-])Cc1cccc(Cl)c1.O=C([O-])Cc1cccc(Cl)c1.O=C([O-])Cc1cccc(Cl)c1.O=C([O-])Cc1cccc(Cl)c1.Oc1ccncc1.Oc1ccncc1.[Cu+2].[Cu+2]", "label 1"],
  ["N#Cc1ccncc1.N#Cc1ccncc1.O=C([O-])Cc1cccc(Cl)c1.O=C([O-])Cc1cccc(Cl)c1.O=C([O-])Cc1cccc(Cl)c1.O=C([O-])Cc1cccc(Cl)c1.[Cu+2].[Cu+2]", "label 0"]
]}
